Target: T1, Importin α3ΔIBB (residues 64–521) (human, UniProt O00629 64-521)
T1 construct: also called Impα3; KPNA4
T1 sequence (looked up): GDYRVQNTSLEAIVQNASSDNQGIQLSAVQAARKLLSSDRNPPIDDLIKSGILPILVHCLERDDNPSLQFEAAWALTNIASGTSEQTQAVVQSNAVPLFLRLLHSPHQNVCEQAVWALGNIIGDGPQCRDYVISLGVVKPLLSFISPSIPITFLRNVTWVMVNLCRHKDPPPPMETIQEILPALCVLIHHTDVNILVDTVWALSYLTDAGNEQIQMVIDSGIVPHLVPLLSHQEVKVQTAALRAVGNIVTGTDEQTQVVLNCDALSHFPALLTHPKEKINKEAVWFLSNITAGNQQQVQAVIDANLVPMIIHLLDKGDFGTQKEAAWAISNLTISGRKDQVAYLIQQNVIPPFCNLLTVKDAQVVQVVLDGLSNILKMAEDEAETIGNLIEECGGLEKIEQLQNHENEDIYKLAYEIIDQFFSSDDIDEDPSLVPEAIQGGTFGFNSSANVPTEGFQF
Assay: ELISA
Conditions: both partners purified
# maps each entry to its Kd
Give your result in nM as a bare value.

1) RSLNMLGRKTCLGRRVVQPGMFADYPPTKKARVLLRRMSN (domain or fragment) [GST-HeV W (C-terminal NLS domain of Hendra virus W protein, residues 409–448, GST fusion)]	19.9

# evaluate next
Using the record for RNIHLLGRKTCLGRRVVQPGMFEDHPPTKKARVSMRRMSN (domain or fragment) [GST-NiV W (C-terminal NLS domain of Nipah virus W protein, residues 411–450, GST fusion)] , report its Kd.
14.4
